Entries annotated with measured shrunken log2 fold change
# System: Escherichia coli TOP10;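 further: peptides expressed intracellularly from a pBAD plasmid library in pooled LB shake-flask culture, induced with 0.3% L-arabinose, DNA abundance read by NGS, three biological replicates, DESeq2 with apeglm shrinkage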
# Assay Comment: shrunken log2 fold change of peptide-encoding DNA abundance (4.5 h post-induction vs induction); higher = less antimicrobial activity (less host growth inhibition)
# Applied Conditions: time post-induction: 4.5 h; library: site-saturation at positions 5, 18, 19, 20
Outcome Measure: shrunken log2 fold change

1. RRIRIRPPRLPRPRPRPAYNPRP    -0.111
2. RRIRTRPPRLPRPRPRPKMSPRP    0.116
3. RRIRTRPPRLPRPRPRPMQHPRP    -0.112
4. RRIRDRPPRLPRPRPRPQYGPRP    -0.414
5. RRIRKRPPRLPRPRPRPMYYPRP    -0.148
6. RRIRERPPRLPRPRPRPPYAPRP    -0.208
7. RRIRIRPPRLPRPRPRPDAFPRP    -0.15
8. RRIRMRPPRLPRPRPRPVGLPRP    0.383
9. RRIRQRPPRLPRPRPRPRWSPRP    0.231
10. RRIRHRPPRLPRPRPRPELCPRP    -0.135
11. RRIRPRPPRLPRPRPRPLEIPRP    -0.199
12. RRIRYRPPRLPRPRPRPGGLPRP    3.02
13. RRIRDRPPRLPRPRPRPQSSPRP    0.0176
